test_system: Protein farnesyltransferase (Mus musculus, UniProt Q61239+Q8K2I1)
test: Inhibition of post-translational processing of v-Ras protein in NIH3T3 cells
pIC50: −log10 of the molar value.
endpoint_label: pIC50

CC[C@@H](C)[C@H](NC[C@@H](NC[C@@H](N)CS)[C@H](C)CC)C(=O)N[C@H]1CCOC1=O	4.00

1: CC[C@@H](C)[C@@H](CN(CC(=O)N[C@@H](CCSC)C(=O)OC)Cc1cccc2ccccc12)NC[C@@H](N)CS
2: CC[C@@H](C)[C@@H](C(=O)N[C@H]1CCOC1=O)N(C)C[C@@H](NC[C@@H](N)CS)[C@H](C)CC
3: CCC(C)[C@@H](CN(CC(=O)N[C@@H](CCSC)C(=O)OC)Cc1ccccc1)NC[C@@H](N)CS (some centres undefined)
Task: Order the records by pIC50, with each subsequent value no larger than the one before. Output spec: a listing of the labels in the requested order.
Result: 3, 1, 2
(3: 7.00, 1: 6.30, 2: 4.60)

meta.source: ChEMBL document CHEMBL1131024
